experiment: Aqueous solubility of the compound in water at pH 3 after 24 hrs; assay type: physicochemical
Entries and their solubility at 24 h

{"columns": ["smilesStructure", "solubility at 24 h [µM]"],
 "data": [
  ["Clc1ccc2c(Nc3ccc4c(c3)NCN(Cc3ccccc3)C4)ccnc2c1", 122],
  ["CCCN1CNc2cc(Nc3ccnc4cc(Cl)ccc34)ccc2C1", 231]
]}

====

system: Plasmodium falciparum; experiment: Resistant index, ratio of IC50 for chloroquine-resistant Plasmodium falciparum W2 to IC50 for chloroquine-sensitive Plasmodium falciparum D10; format: functional
// reported Ratio IC50 for each item listed
measuredParameter: Ratio IC50

{"columns": ["smilesStructure", "measuredParameter", "observedValue"],
 "data": [
  ["O=c1c2ccc(Nc3ccnc4cc(Cl)ccc34)cc2ncn1Cc1ccc(CN2CCCC2)cc1", "Ratio IC50", 2.7],
  ["CCN1CNc2cc(Nc3ccnc4cc(Cl)ccc34)ccc2C1", "Ratio IC50", 5.4],
  ["CCCN1COc2cc(Nc3ccnc4cc(Cl)ccc34)ccc2C1", "Ratio IC50", 2],
  ["CCN(CC)Cc1cc(Nc2ccnc3cc(Cl)ccc23)ccc1O.Cl", "Ratio IC50", 0.7],
  ["CCCN1CNc2cc(Nc3ccnc4cc(Cl)ccc34)ccc2C1", "Ratio IC50", 2.5],
  ["CCN1COc2cc(Nc3ccnc4cc(Cl)ccc34)ccc2C1", "Ratio IC50", 3.1],
  ["Clc1ccc2c(Nc3ccc4c(c3)OCN(Cc3ccccc3)C4)ccnc2c1", "Ratio IC50", 0.8],
  ["CCN(CC)Cc1ccc(Nc2ccnc3cc(Cl)ccc23)cc1O", "Ratio IC50", 1.1]
]}

====

test: Intrinsic clearance in rat liver microsomes at 1 uM; assay type: ADME, Microsome; settings: read-out: CLH
measuredParameter: microsomal CLint at 1 µM (µL/min/mg)

{"columns": ["smilesStructure", "observedValue"],
 "data": [
  ["CCCN1CNc2cc(Nc3ccnc4cc(Cl)ccc34)ccc2C1", 121]
]}
